# TARGET UNDER TEST: MMP-13 (Homo sapiens)
# PROTOCOL NOTES: TPL (thiopeptolide) assay, MMP-13 (without and with AH)
# Type: biochemical
# TEST PARAMETERS: in presence of acetohydroxamic acid (+AH); read-out: IC50 MMP13 (+AH)
pIC50: −log10 of the molar value.
PROPERTY NAME: pIC50

1) O=C(O)c1ccc(CNC(=O)c2cc(-c3ccc(OC(F)(F)F)cc3)cs2)cc1 :: 7.20

* * *

# TARGET UNDER TEST: MMP-1 (Homo sapiens)
# Sequence (P03956 100-469): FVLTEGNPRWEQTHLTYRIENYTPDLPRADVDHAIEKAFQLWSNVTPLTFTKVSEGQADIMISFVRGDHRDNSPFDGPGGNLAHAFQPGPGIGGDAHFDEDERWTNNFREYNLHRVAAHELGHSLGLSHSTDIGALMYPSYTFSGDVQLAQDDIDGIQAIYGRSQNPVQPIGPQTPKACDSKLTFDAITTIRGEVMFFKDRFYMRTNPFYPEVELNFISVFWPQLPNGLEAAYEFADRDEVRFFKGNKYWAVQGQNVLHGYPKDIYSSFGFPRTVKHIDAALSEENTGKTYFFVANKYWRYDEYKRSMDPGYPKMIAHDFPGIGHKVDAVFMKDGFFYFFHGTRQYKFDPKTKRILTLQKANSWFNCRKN
# PROTOCOL NOTES: TPL (thiopeptolide) assay, MMP-1
# Assay type: biochemical
# TEST PARAMETERS: unit inferred, read-out: Activities measured by TPL assays, MMP-1
PROPERTY NAME: IC50

1. O=C(OCc1ccccc1)c1ccc2[nH]c(=O)n(Cc3ccccc3)c(=O)c2c1 :: > 30 µM
